The origin of these recorded values is patent US6147100A.

Test system: production of prostaglandin E2 by human fibroblasts
TEST DESCRIPTION: Inhibition of Production of Prostaglandin E2 in Human Fibroblasts (IL-1 stimulation)
Assay type: cell-based
CONDITION INFO: Fibroblast; human fibroblasts under stimulation with IL-1
Would you kindly list IC50 for each of these compounds?
Give the value in nM but do not write nM after it.

Q. Reported IC50, compound O=C1NC(=O)/C(=C/c2ccc(C(=O)NC[C@@H]3C[C@H](SCc4ccccc4-c4ccccc4)CN3C(=O)c3ccccc3C(=O)c3ccc(F)cc3)cc2)S1 : ____
A. 260

Q. Reported IC50, compound O=C1NC(=O)/C(=C/c2ccc(C(=O)NC[C@@H]3C[C@@H](N(CC4CC4)C(c4ccccc4)c4ccccc4)CN3C(=O)c3ccccc3C(=O)c3ccc(F)cc3)cc2)S1 : ____
A. 1400

Q. Reported IC50, compound O=C1NC(=S)S/C1=C\c1ccc(C(=O)NC[C@@H]2C[C@@H](SCc3ccccc3-c3ccccc3)CN2C(=O)c2ccccc2C(=O)c2ccc(F)cc2)s1 : ____
A. 1000

* * *

ASSAY TARGET: cPLA2 (Homo sapiens)
TEST DESCRIPTION: cPLA2 Inhibitory Activity
Type: biochemical
CONDITION INFO: 1-palmitoyl-2-[14C]-arachidonoyl-sn-glycero-3-phosphocholine 2.5 μM, sn-1,2-dioleoylglycerol 1.25 μM; pH 7.5, 15 min at 37° C.
Would you kindly list IC50 for each of these compounds?
Give the value in nM but do not write nM after it.

Q. Reported IC50, compound O=C1NC(=S)S/C1=C\c1ccc(/C=C/[C@@H]2C[C@@H](OCc3ccccc3-c3ccccc3)CN2C(=O)c2ccccc2C(=O)c2ccc(F)cc2)s1 : ____
A. 1600

Q. Reported IC50, compound CC(C)c1cccc(-c2cccc3ccccc23)c1O[C@@H]1C[C@@H](CNC(=O)c2ccc(/C=C3\SC(=O)NC3=O)cc2)N(C(=O)c2ccccc2C(=O)c2ccc(F)cc2)C1 : ____
A. 20

Q. Reported IC50, compound O=C1NC(=S)S/C1=C\c1ccc(NC(=O)[C@@H]2C[C@@H](OCc3ccccc3-c3ccccc3)CN2C(=O)c2ccccc2C(=O)c2ccc(Cl)cc2)cc1 : ____
A. 130

Q. Reported IC50, compound CC(C)c1ccccc1-c1ccccc1O[C@@H]1C[C@@H](CNC(=O)c2ccc(/C=C3\SC(=O)NC3=O)cc2)N(C(=O)c2ccccc2C(=O)c2ccc(F)cc2)C1 : ____
A. 10

Q. Reported IC50, compound O=C1NC(=O)/C(=C/c2ccc(C(=O)NC[C@@H]3C[C@@H](OCc4ccc(-c5ccccc5)cc4)CN3C(=O)c3ccccc3C(=O)c3ccccc3)cc2)S1 : ____
A. 300

* * *

Would you kindly list pIC50 for each of these compounds?
Protein target, amino acids: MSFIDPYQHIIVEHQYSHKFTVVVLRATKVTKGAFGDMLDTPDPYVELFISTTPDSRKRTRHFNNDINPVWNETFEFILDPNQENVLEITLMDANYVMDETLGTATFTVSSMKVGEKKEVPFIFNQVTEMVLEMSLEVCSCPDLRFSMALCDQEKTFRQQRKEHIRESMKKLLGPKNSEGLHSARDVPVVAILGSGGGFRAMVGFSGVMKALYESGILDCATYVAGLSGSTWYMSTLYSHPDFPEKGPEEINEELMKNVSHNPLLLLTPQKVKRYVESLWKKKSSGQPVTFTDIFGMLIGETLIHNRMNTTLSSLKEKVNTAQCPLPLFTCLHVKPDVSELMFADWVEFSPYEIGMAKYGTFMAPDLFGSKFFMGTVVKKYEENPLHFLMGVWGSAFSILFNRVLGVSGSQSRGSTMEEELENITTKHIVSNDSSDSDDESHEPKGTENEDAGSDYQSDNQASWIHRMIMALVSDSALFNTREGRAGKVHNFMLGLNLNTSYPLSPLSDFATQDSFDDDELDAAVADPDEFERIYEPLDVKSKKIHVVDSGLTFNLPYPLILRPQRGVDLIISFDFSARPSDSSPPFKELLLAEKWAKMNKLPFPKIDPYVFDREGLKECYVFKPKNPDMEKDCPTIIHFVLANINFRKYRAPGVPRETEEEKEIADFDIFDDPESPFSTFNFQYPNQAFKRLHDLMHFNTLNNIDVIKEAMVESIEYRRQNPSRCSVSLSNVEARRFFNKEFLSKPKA
Please keep in mind that pIC50 is minus log10 of the molar concentration; only the number is needed.

Q. Reported pIC50, compound O=C1NC(=O)/C(=C/c2ccc(C(=O)NC[C@@H]3C[C@@H](OCc4ccccc4-c4ccc5ccccc5c4)CN3C(=O)c3ccccc3C(=O)c3ccc(F)cc3)cc2)S1 : ____
A. 7.32

Q. Reported pIC50, compound CN(C[C@@H]1C[C@@H](OCc2ccccc2-c2ccccc2)CN1C(=O)c1ccccc1C(=O)c1ccc(F)cc1)C(=O)c1ccc(/C=C2\SC(=O)NC2=O)cc1 : ____
A. 6.11

Q. Reported pIC50, compound CN(Cc1ccccc1)[C@@H]1C[C@@H](CNC(=O)c2ccc(/C=C3\SC(=O)NC3=O)cc2)N(C(=O)c2ccccc2C(=O)c2ccc(F)cc2)C1 : ____
A. 5.82

Q. Reported pIC50, compound O=C1NC(=S)S/C1=C\c1ccc(C(=O)NC[C@@H]2C[C@@H](SCc3ccccc3-c3ccccc3)CN2C(=O)c2ccccc2C(=O)c2ccc(F)cc2)cc1 : ____
A. 7.15
